ASSAY_INFO: recombinant UMI read abundance after kanamycin selection (control-corrected) (log10(CPM+1)); higher = more efficient recombination; extreme values may be limits of the assay; sequences stand for … in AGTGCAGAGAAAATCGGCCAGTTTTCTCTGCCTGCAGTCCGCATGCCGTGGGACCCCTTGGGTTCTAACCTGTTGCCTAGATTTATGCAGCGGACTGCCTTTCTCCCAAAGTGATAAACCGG…AGGTTGGTTTCACT; site = the 11-nt donor;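 also: IS621 bridge recombinase in Escherichia coli cells against a fixed T5 target plasmid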
RESULT_TYPE: recombinant UMI read abundance (log10)
No unit in the answer, please; the number alone is enough.

Incoming: Which recombinant UMI read abundance (log10) reading was recorded for the sequence CGACGTACATGGACCGGTTTTCCCGGTAATCCGTATTTGCT (site CGGCGTACTAG) ?
Outgoing: 0.688

Incoming: Do the same for GCGAGGCCATGGACCGGTTTTCCCGGTAATCCGTATTTGGG (site GCGAGGCCTCC) please
Outgoing: 0.0117

Incoming: What do you get for GGGCATGCATGGACCGGTTTTCCCGGTAATCCGTATTTGAG (site GGGCATGCTCT) ?
Outgoing: 1.57

Incoming: Proceed to CAAGCAACATGGACCGGTTTTCCCGGTAATCCGTATTTGCT (site CAAGCAGCTAG)
Outgoing: 0

Incoming: Can you handle GTTAGACCATGGACCGGTTTTCCCGGTAATCCGTATTTGGC (site GTTAGAGCTGC) next?
Outgoing: 0
